- experimentNotes: self-splicing fitness, log relative to wild type (ln ratio); higher = more splicing; Tetrahymena group I intron in knt gene, E. coli kanamycin selection, DiMSum; sequences stand for … in CUCUCU…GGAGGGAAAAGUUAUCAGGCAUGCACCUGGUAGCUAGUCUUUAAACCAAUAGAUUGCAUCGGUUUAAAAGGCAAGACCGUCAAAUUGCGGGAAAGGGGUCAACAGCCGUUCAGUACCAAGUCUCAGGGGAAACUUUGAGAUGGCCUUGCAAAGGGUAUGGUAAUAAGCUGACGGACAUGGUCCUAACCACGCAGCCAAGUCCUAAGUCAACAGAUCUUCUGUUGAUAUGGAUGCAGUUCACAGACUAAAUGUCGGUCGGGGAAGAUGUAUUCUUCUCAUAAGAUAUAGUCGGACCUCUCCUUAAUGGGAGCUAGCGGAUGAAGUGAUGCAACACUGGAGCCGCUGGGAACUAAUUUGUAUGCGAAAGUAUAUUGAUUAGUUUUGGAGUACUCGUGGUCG;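 note: selection with 25 µg/mL kanamycin versus none on LB agar overnight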
- cond: 37 °C
Overview of reported self-splicing fitness (ln) across a group of sequences:
measuredProperty: self-splicing fitness (ln)

> print(dat)
                   chain            measuredproperty  observedvalue
 1  AUGUAGCAAUAUUACGAUUC  self-splicing fitness (ln)          -1.12
 2  UCUGAGCAAUAUUACGCGAG  self-splicing fitness (ln)          -2.28
 3  GCUGAGCAAUAUUACGGUUA  self-splicing fitness (ln)         -0.208
 4  GUAUAGCAAUAUUACGCAGG  self-splicing fitness (ln)          -3.36
 5  CUCUAGCAAUAUUACGUUGU  self-splicing fitness (ln)          -3.68
 6  CUGGAGCAAUAUUACGUGCU  self-splicing fitness (ln)          -2.91
 7  AUGGAGCAAUAUUACGGAUA  self-splicing fitness (ln)          -2.21
 8  UGCUAGCAAUAUUACGGUUC  self-splicing fitness (ln)          -1.69
 9  AAUUAGCAAUAUUACGUAUG  self-splicing fitness (ln)          -1.13
10  UUUAAGCAAUAUUACGACAU  self-splicing fitness (ln)         -0.621
11  GCCGAGCAAUAUUACGCUCG  self-splicing fitness (ln)          -2.02
12  GCUUAGCAAUAUUACGGUUG  self-splicing fitness (ln)          -1.91
13  UUUUAGCAAUAUUACGGAUG  self-splicing fitness (ln)            0.2
14  ACUGAGCAAUAUUACGUUAA  self-splicing fitness (ln)          -2.15
15  ACACAGCAAUAUUACGGUCU  self-splicing fitness (ln)          0.298
16  UUGUAGCAAUAUUACGGCUU  self-splicing fitness (ln)          0.113
17  CGUGAGCAAUAUUACGAAAA  self-splicing fitness (ln)          -2.88
18  GUGGAGCAAUAUUACGAGUU  self-splicing fitness (ln)           -1.7
19  GAUAAGCAAUAUUACGGUUA  self-splicing fitness (ln)          0.108
20  CGUGAGCAAUAUUACGUUGC  self-splicing fitness (ln)          -2.51
21  CGGCAGCAAUAUUACGAGCG  self-splicing fitness (ln)         -0.441
22  GGAGAGCAAUAUUACGGGAU  self-splicing fitness (ln)          -3.23
23  CGACAGCAAUAUUACGAAGC  self-splicing fitness (ln)          -3.43
24  UACGAGCAAUAUUACGGGGA  self-splicing fitness (ln)          -1.69
25  GCCAAGCAAUAUUACGGAAG  self-splicing fitness (ln)          -2.57
26  AGCCAGCAAUAUUACGUAAA  self-splicing fitness (ln)          -1.55
27  AGGUAGCAAUAUUACGAAAG  self-splicing fitness (ln)          -2.49
28  AUUAAGCAAUAUUACGGGAU  self-splicing fitness (ln)         -0.652
29  GCGUAGCAAUAUUACGGUGA  self-splicing fitness (ln)         -0.187
30  UAUAAGCAAUAUUACGAAGG  self-splicing fitness (ln)          -1.19
31  CUUGAGCAAUAUUACGUACA  self-splicing fitness (ln)          -1.77
32  GGUGAGCAAUAUUACGGCUA  self-splicing fitness (ln)         0.0315
33  AAAUAGCAAUAUUACGGGCU  self-splicing fitness (ln)         -0.367
34  UUCGAGCAAUAUUACGGUAC  self-splicing fitness (ln)          -2.62
35  CUUAAGCAAUAUUACGACAU  self-splicing fitness (ln)          -2.11
36  AGGAAGCAAUAUUACGAGUU  self-splicing fitness (ln)          -1.03
37  ACCGAGCAAUAUUACGUGGG  self-splicing fitness (ln)          -2.87
38  UUUCAGCAAUAUUACGACAG  self-splicing fitness (ln)          0.886
39  CCGAAGCAAUAUUACGGCCC  self-splicing fitness (ln)          -1.71
40  AUUGAGCAAUAUUACGUAAC  self-splicing fitness (ln)          -1.53
41  AAUGAGCAAUAUUACGGGCG  self-splicing fitness (ln)          -3.07
42  CGAGAGCAAUAUUACGAGGC  self-splicing fitness (ln)         -0.565
43  CACCAGCAAUAUUACGCAAU  self-splicing fitness (ln)          -4.19
44  AAGAAGCAAUAUUACGCAGG  self-splicing fitness (ln)          -1.26
45  GCUUAGCAAUAUUACGAUCC  self-splicing fitness (ln)          0.226
46  UAACAGCAAUAUUACGAAUA  self-splicing fitness (ln)         -0.528
47  GUCCAGCAAUAUUACGCCCC  self-splicing fitness (ln)         -0.607
48  AACAAGCAAUAUUACGCUAG  self-splicing fitness (ln)          -1.98
49  CUCCAGCAAUAUUACGUAAG  self-splicing fitness (ln)         0.0902

---

- experimentNotes: self-splicing fitness, log relative to wild type (ln ratio); higher = more splicing; Tetrahymena group I intron in knt gene, E. coli kanamycin selection, DiMSum; sequences stand for … in CUCUCU…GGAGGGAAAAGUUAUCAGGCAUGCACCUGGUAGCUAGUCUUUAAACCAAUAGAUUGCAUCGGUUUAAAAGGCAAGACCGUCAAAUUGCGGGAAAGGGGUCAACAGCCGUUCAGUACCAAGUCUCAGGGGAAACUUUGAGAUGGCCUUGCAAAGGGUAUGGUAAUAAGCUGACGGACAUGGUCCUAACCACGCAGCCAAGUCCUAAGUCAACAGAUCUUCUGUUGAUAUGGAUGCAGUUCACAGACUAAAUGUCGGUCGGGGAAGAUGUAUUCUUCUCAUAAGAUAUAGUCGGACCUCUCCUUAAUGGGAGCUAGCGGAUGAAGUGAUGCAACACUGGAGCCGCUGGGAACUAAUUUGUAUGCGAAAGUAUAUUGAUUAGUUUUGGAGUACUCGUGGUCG
- cond: 37 °C
measuredProperty: self-splicing fitness (ln)

> print(dat)
                   chain  observedvalue
 1  CCUUAGCAAUAUUACGACCU          -1.77
 2  UGCUAGCAAUAUUACGUAAC          -1.84
 3  AACUAGCAAUAUUACGAUGU         -0.157
 4  ACCGAGCAAUAUUACGAUGU          -1.86
 5  CCUUAGCAAUAUUACGAUUC          -3.28
 6  UCAUAGCAAUAUUACGGAUG          -2.07
 7  GUGAAGCAAUAUUACGCUUC          -2.41
 8  UUGAAGCAAUAUUACGCCGC           -2.1
 9  GGCAAGCAAUAUUACGCAGA         -0.852
10  UGUGAGCAAUAUUACGGGCG          0.233
11  UGUUAGCAAUAUUACGCGUC          -2.79
12  AGGGAGCAAUAUUACGCCCG         -0.737
13  AACCAGCAAUAUUACGCCCA         -0.865
14  CAGCAGCAAUAUUACGGGAC          -2.46
15  GGCUAGCAAUAUUACGCCCG          -3.68
16  CCGUAGCAAUAUUACGUUGU           -2.3
17  GAUGAGCAAUAUUACGCUGG          -1.02
18  AGCGAGCAAUAUUACGUCUA             -2
19  CCUAAGCAAUAUUACGCUUA          -1.97
20  AAUUAGCAAUAUUACGUGAU          -1.56
21  GUUAAGCAAUAUUACGGUAU         -0.895
22  GGCAAGCAAUAUUACGUGUC          -3.08
23  GAUGAGCAAUAUUACGUGGG          -3.04
24  AAGAAGCAAUAUUACGUGCU           -1.3
25  GCGCAGCAAUAUUACGGUUA         -0.631
26  CAAUAGCAAUAUUACGAGGC          -1.44
27  AAGGAGCAAUAUUACGGUUC          -2.92
28  GCCUAGCAAUAUUACGUAAC         -0.248
29  GUGUAGCAAUAUUACGAUGU         -0.234
30  CUCAAGCAAUAUUACGACCU          -1.34
31  AAAAAGCAAUAUUACGUCUC          -0.62
32  CAGCAGCAAUAUUACGAGUA          -1.77
33  CCAGAGCAAUAUUACGUCGC          -2.49
34  UGAUAGCAAUAUUACGGAAA           -2.2
35  CUACAGCAAUAUUACGGGUU          -2.94
36  CAAAAGCAAUAUUACGGCCG          0.574
37  UAUAAGCAAUAUUACGAUCU         0.0539
38  UUUAAGCAAUAUUACGGUAA          -1.01
39  AUGCAGCAAUAUUACGGACG         -0.811
40  UCCGAGCAAUAUUACGUCAU          -2.75
41  CCGCAGCAAUAUUACGUGCC          -3.75
42  UCGUAGCAAUAUUACGACUU         -0.781
43  GCGGAGCAAUAUUACGUCUU         -0.899
44  GACUAGCAAUAUUACGGUAC           -1.2
45  CCUAAGCAAUAUUACGAUUC           -2.6
46  GCAUAGCAAUAUUACGCCGA          -2.37
47  AAAGAGCAAUAUUACGGGUG          -1.88
48  GUAAAGCAAUAUUACGCUCU         -0.206
49  GAGAAGCAAUAUUACGGGGG           -1.8
50  UUAUAGCAAUAUUACGCCUA          0.273
51  GGAGAGCAAUAUUACGUAGU          -2.15
52  UUAAAGCAAUAUUACGGAAC          -1.69
53  GAGUAGCAAUAUUACGGUGG          -2.15
54  UGCAAGCAAUAUUACGUAGG         -0.277
55  ACAGAGCAAUAUUACGAAUU          -1.57
56  GGUCAGCAAUAUUACGUCUC         -0.113
57  GCACAGCAAUAUUACGCAUU          0.276

The measured values listed here are drawn from the supplement of paper PMC7877785.
